- Target Under Test: T1, hTSLP-His (human, UniProt Q969D9 29-159, limits assumed)
- T1 construct: bought; also called hTSLP (ACROBiosystems TSP-H52Hb); not shown: His tag
- Assay Notes: competition ELISA, 7 nM TSLP-His pre-incubated with antibody; competitor Tezepelumab coated
pIC50: −log10 of the molar value.

{"Binder": "BDG38.092 (antibody, V domains shown, IgG1) VH: QMQLVESGGGVVQPGRSLTLSCAASGFEFRTYGMHWVRQAPGKGLEWLAVIWDDGSNTHYADSVKGRFTITRDNSKNTLNLQMNSLRVEDTAVYYCVRAPQWYLTAEAFDLWGQGTMVTVSS VL: SYVLTQPPSVSVAPGETATITCGGNLIGARLVHWYQQKPGQAPVLVIYDDSDRPSRIPERFSGSNIGNTATLTISDVEEGDEADYYCQVWDYYSDHMVFGGGTKLTVL", "pIC50": 8.13}
{"Binder": "BDG38.112 (antibody, V domains shown, IgG1) VH: QMQLVESGGGVVQPGRSLRLSCAASGFEFRTYGMHWVRQAPGKGLEWLGVIWYDGSNTHYADSVKGRFTITRDNSKNTLNLQMNSLRAEDTAVYYCVRAPQWYLTAEAFDLWGQGTMVTVSS VL: SYILTQPPSVSVAPGQTATITCGGNLIGARLVHWYQQKPGQAPVLVIYDDSDRPSRIPERFSGSNIGNTATLTIERVEEGDEADYYCQVWDYSSDTYVFGGGTKLTVL", "pIC50": 7.54}
{"Binder": "BDG38.125 (antibody, V domains shown, IgG1) VH: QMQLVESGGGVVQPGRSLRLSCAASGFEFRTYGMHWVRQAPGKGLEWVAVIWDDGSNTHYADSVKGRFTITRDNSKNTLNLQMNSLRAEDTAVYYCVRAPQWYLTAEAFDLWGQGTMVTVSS VL: SYVLTQPPSVSVAPGETATITCGGNLIGARLVHWYQQKPGQAPVLVIYDDSDRPSRIPERFSGSNIGNTATLTIERVEEGDEADYYCQVWDYSSDHMVFGGGTKLTVL", "pIC50": 8.07}
